Target: FXa (Homo sapiens)
Sequence (P00742 235-488 limits assumed): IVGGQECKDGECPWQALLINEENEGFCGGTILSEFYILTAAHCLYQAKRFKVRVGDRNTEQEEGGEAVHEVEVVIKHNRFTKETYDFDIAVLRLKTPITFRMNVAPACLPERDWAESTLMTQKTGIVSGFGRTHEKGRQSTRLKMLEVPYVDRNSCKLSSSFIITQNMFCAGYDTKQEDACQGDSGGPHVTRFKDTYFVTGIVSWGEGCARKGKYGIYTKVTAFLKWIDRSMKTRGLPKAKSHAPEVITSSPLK
Sequence (P00742 41-179 limits assumed): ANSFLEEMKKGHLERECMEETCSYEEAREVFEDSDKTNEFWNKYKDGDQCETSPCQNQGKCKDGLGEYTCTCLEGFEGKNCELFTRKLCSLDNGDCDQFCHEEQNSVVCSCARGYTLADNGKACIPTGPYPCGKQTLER
Experimental endpoint: IC50 (nM)
Give the value, in units of nM, as a plain number.

// compound CN(C(=O)CN1CCC(O)CC1)c1ccc(NC(=O)[C@H]2C[C@@H](O)CN2C(=O)Nc2ccc(Cl)cc2)cc1 , assay FXa (Homo sapiens), IC50 value: 37
